- Test system: 991263-137-R1-J2-PDC complex spheroid viability
- assay_remarks: Anticancer human tumor 991263-137-R1-J2-PDC patient-derived colon adenocarcinoma cell line growth inhibition [POLQ]
- experimental_context: second compound 0.316 µM; first compound 1 µM; stronger effect = lower value
endpoint_name: viability, T/C (%)
Supply the numeric figure in %, leaving out any unit text.

CC1COCCN1c1cc(C2(S(C)(=N)=O)CC2)nc(-c2ccnc3[nH]ccc23)n1 (stereo not given) + Nc1ccc(C#CCN(C(=O)Cc2ncc(C(F)(F)F)cc2C(F)(F)F)c2ccc(F)cc2)nn1	103
CC1COCCN1c1cc(C2(S(C)(=N)=O)CC2)nc(-c2ccnc3[nH]ccc23)n1 (stereo not given) + Cc1cccc(N(C)C(=O)C2C(O)CCN2c2nc(C)cc(C(F)(F)F)c2C#N)c1	112
CC(C)n1c(=O)n(C)c2cnc3cc(F)c(-c4ccc(OCCCN5CCCCC5)nc4)cc3c21 + Cc1cccc(N(C)C(=O)C2C(O)CCN2c2nc(C)cc(C(F)(F)F)c2C#N)c1	106
C=CC(=O)N1CCN(c2nc(=O)n(-c3c(C)ccnc3C(C)C)c3nc(-c4c(O)cccc4F)c(F)cc23)C(C)C1 (stereo not given) + Cc1cccc(N(C)C(=O)C2C(O)CCN2c2nc(C)cc(C(F)(F)F)c2C#N)c1	90.3
COc1cc(C2c3cc4c(cc3C(OC3OC5COC(C)OC5C(O)C3O)C3COC(=O)C23)OCO4)cc(OC)c1O (stereo not given) + COC1C(OC(N)=O)C(O)C(Oc2ccc3c(O)c(NC(=O)c4ccc(O)c(CC=C(C)C)c4)c(=O)oc3c2C)OC1(C)C	90.3

-- ask Query viability, T/C for COc1cccc(OCCCN)c1-c1cc(Nc2cnc(C#N)cn2)n[nH]1 + COC1C(OC(N)=O)C(O)C(Oc2ccc3c(O)c(NC(=O)c4ccc(O)c(CC=C(C)C)c4)c(=O)oc3c2C)OC1(C)C
-- reply 29.6

-- ask Query viability, T/C for C=CCn1c(=O)c2cnc(Nc3ccc(N4CCN(C)CC4)cc3)nc2n1-c1cccc(C(C)(C)O)n1 + Nc1ccc(C#CCN(C(=O)Cc2ncc(C(F)(F)F)cc2C(F)(F)F)c2ccc(F)cc2)nn1
-- reply 93.5

-- ask Query viability, T/C for CC(C)n1c(=O)n(C)c2cnc3cc(F)c(-c4ccc(OCCCN5CCCCC5)nc4)cc3c21 + Nc1ccc(C#CCN(C(=O)Cc2ncc(C(F)(F)F)cc2C(F)(F)F)c2ccc(F)cc2)nn1
-- reply 110

-- ask Query viability, T/C for O=C(Nc1ccc(O)c(NS(=O)(=O)c2ccc(F)cc2)c1)c1ccc(-c2ccccc2)cc1 + Cc1cccc(N(C)C(=O)C2C(O)CCN2c2nc(C)cc(C(F)(F)F)c2C#N)c1
-- reply 80.9

-- ask Query viability, T/C for CC1COCCN1c1cc(C2(O)CC3CCC(C2)O3)c2cnn(-c3ccn[nH]3)c2n1 (stereo not given) + COC1C(OC(N)=O)C(O)C(Oc2ccc3c(O)c(NC(=O)c4ccc(O)c(CC=C(C)C)c4)c(=O)oc3c2C)OC1(C)C
-- reply 50.5

----------
In this section, each of the molecules is paired with its reported viability, T/C.
- Tested on: 991263-137-R1-J2-PDC complex spheroid viability
- assay_remarks: Anticancer human tumor 991263-137-R1-J2-PDC cell line growth inhibition [POLQ];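 note: spheroids exposed to compounds for 7 days before readout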;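 for viability, T/C: 100% = DMSO vehicle control viability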
- experimental_context: second compound 3.16 µM; first compound 0.000316 µM; stronger effect = lower value
Supply the numeric figure in %, leaving out any unit text.

CC[C@@]1(O)C(=O)OCc2c1cc1n(c2=O)Cc2cc3c(CN(C)C)c(O)ccc3nc2-1 + Cc1cccc(N(C)C(=O)C2C(O)CCN2c2nc(C)cc(C(F)(F)F)c2C#N)c1	101
Cn1ncnc1[C@H]1c2n[nH]c(=O)c3cc(F)cc(c23)N[C@@H]1c1ccc(F)cc1 + Cc1cccc(N(C)C(=O)C2C(O)CCN2c2nc(C)cc(C(F)(F)F)c2C#N)c1	103

API: the following record is the query input.
-- ask Query viability, T/C for CC[C@@]1(O)C(=O)OCc2c1cc1n(c2=O)Cc2cc3c(CN(C)C)c(O)ccc3nc2-1 + COC1C(OC(N)=O)C(O)C(Oc2ccc3c(O)c(NC(=O)c4ccc(O)c(CC=C(C)C)c4)c(=O)oc3c2C)OC1(C)C
-- reply 93.9

----------
In this section, each of the compounds is paired with its reported viability, T/C.
- Tested on: 991263-137-R1-J2-PDC complex spheroid viability
- assay_remarks: Anticancer human tumor 991263-137-R1-J2-PDC cell line growth inhibition [POLQ];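 note: spheroids exposed to compounds for 7 days before readout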;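 for viability, T/C: 100% = DMSO vehicle control viability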
- experimental_context: second compound 10 µM; first compound 1 µM; stronger effect = lower value
Supply the numeric figure in %, leaving out any unit text.

Example entries begin here.
CC(C)n1c(=O)n(C)c2cnc3cc(F)c(-c4ccc(OCCCN5CCCCC5)nc4)cc3c21 + COC1C(OC(N)=O)C(O)C(Oc2ccc3c(O)c(NC(=O)c4ccc(O)c(CC=C(C)C)c4)c(=O)oc3c2C)OC1(C)C	114
C#Cc1c(F)ccc2cc(O)cc(-c3ncc4c(N5CC6CCC(C5)N6)nc(OCC56CCCN5CC(F)C6)nc4c3F)c12 (stereo not given) + COC1C(OC(N)=O)C(O)C(Oc2ccc3c(O)c(NC(=O)c4ccc(O)c(CC=C(C)C)c4)c(=O)oc3c2C)OC1(C)C	110
CC1COCCN1c1cc(C2(S(C)(=N)=O)CC2)nc(-c2ccnc3[nH]ccc23)n1 (stereo not given) + Cc1cccc(N(C)C(=O)C2C(O)CCN2c2nc(C)cc(C(F)(F)F)c2C#N)c1	98.5

-- ask Tell me viability, T/C of CCc1cc2c(N3CCc4c(cc(Cn5ccnc5)cc4-c4cn(C)nc4C(F)(F)F)C3=O)cc(C)nc2c(OC)n1 + COC1C(OC(N)=O)C(O)C(Oc2ccc3c(O)c(NC(=O)c4ccc(O)c(CC=C(C)C)c4)c(=O)oc3c2C)OC1(C)C when tested on 991263-137-R1-J2-PDC complex spheroid viability.
-- reply 105

-- ask Tell me viability, T/C of CCc1cc2c(N3CCc4c(cc(Cn5ccnc5)cc4-c4cn(C)nc4C(F)(F)F)C3=O)ccnc2c(OC)n1 + COC1C(OC(N)=O)C(O)C(Oc2ccc3c(O)c(NC(=O)c4ccc(O)c(CC=C(C)C)c4)c(=O)oc3c2C)OC1(C)C when tested on 991263-137-R1-J2-PDC complex spheroid viability.
-- reply 109

----------
- System: 991263-137-R1-J2-PDC complex spheroid viability
- assay_remarks: Anticancer human tumor 991263-137-R1-J2-PDC cell line growth inhibition [POLQ];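 note: spheroids exposed to compounds for 7 days before readout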;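 for viability, T/C: 100% = DMSO vehicle control viability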
- experimental_context: second compound 10 µM; first compound 1 µM; stronger effect = lower value
Response field label takes true (1) when viability, T/C is strictly below 90% and false (0) in all other cases.

CC1COCCN1c1cc(C2(S(C)(=N)=O)CC2)nc(-c2ccnc3[nH]ccc23)n1 (stereo unspecified) + COC1C(OC(N)=O)C(O)C(Oc2ccc3c(O)c(NC(=O)c4ccc(O)c(CC=C(C)C)c4)c(=O)oc3c2C)OC1(C)C	false (0)
CNCc1ccc(-c2[nH]c3cc(F)cc4c3c2CCNC4=O)cc1 + Nc1ccc(C#CCN(C(=O)Cc2ncc(C(F)(F)F)cc2C(F)(F)F)c2ccc(F)cc2)nn1	false (0)
COc1cccc2c1C(=O)c1c(O)c3c(c(O)c1C2=O)CC(O)(C(=O)CO)CC3OC1CC(N)C(O)C(C)O1 (stereo unspecified) + Cc1cccc(N(C)C(=O)C2C(O)CCN2c2nc(C)cc(C(F)(F)F)c2C#N)c1	true (1)
CCc1c2c(nc3ccc(O)cc13)-c1cc3c(c(=O)n1C2)COC(=O)[C@]3(O)CC + Cc1cccc(N(C)C(=O)C2C(O)CCN2c2nc(C)cc(C(F)(F)F)c2C#N)c1	true (1)
O=C(c1cc(Cc2n[nH]c(=O)c3ccccc23)ccc1F)N1CCN(C(=O)C2CC2)CC1 + Nc1ccc(C#CCN(C(=O)Cc2ncc(C(F)(F)F)cc2C(F)(F)F)c2ccc(F)cc2)nn1	false (0)

-- ask Dear colleague, could you confirm whether viability, T/C of C=CC(=O)N1CCN(c2nc(=O)n(-c3c(C)ccnc3C(C)C)c3nc(-c4c(O)cccc4F)c(F)cc23)C(C)C1 (stereo unspecified) + Cc1cccc(N(C)C(=O)C2C(O)CCN2c2nc(C)cc(C(F)(F)F)c2C#N)c1 falls below 90%? Thanks.
-- reply false (0)

-- ask Dear colleague, could you confirm whether viability, T/C of O=C(Nc1ccc(O)c(NS(=O)(=O)c2ccc(F)cc2)c1)c1ccc(-c2ccccc2)cc1 + Nc1ccc(C#CCN(C(=O)Cc2ncc(C(F)(F)F)cc2C(F)(F)F)c2ccc(F)cc2)nn1 falls below 90%? Thanks.
-- reply false (0)

----------
- Tested on: 991263-137-R1-J2-PDC complex spheroid viability
- assay_remarks: Anticancer human tumor 991263-137-R1-J2-PDC cell line growth inhibition [POLQ];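 note: spheroids exposed to compounds for 7 days before readout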
- experimental_context: curve of first compound; second compound 0.1 µM
endpoint_name: IC50 (µM)
Supply the numeric figure in µM, leaving out any unit text.

CC1COCCN1c1cc(C2(O)CC3CCC(C2)O3)c2cnn(-c3ccn[nH]3)c2n1 (stereo not given) + Cc1cccc(N(C)C(=O)C2C(O)CCN2c2nc(C)cc(C(F)(F)F)c2C#N)c1	2.18

API: the following record is the query input.
-- ask Query IC50 for COc1cccc(OCCCN)c1-c1cc(Nc2cnc(C#N)cn2)n[nH]1 + COC1C(OC(N)=O)C(O)C(Oc2ccc3c(O)c(NC(=O)c4ccc(O)c(CC=C(C)C)c4)c(=O)oc3c2C)OC1(C)C
-- reply 0.421
